Value source: PubChem BioAssay (EPA / NIEHS)

- experiment: APR_HepG2_p53Act_72hr: Apredica 72-hour HepG2 Assay for p53 Activation (AID 2282923);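 note: average cellular p53 protein immunofluorescence intensity in HepG2 cells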
- assay_context: high-content imaging, actives raise or lower the signal
Calls of active or inactive are those of the source. Rule for the calls: active = hit-call score of the fitted dose curve at least 0.9, where 1 is the maximum; inactive = score below 0.9.
quantity_measured: outcome

- compound: "N#C[C@@H]1CC(F)(F)CN1C(=O)CNC1CC2CCC(C1)N2c1ncccn1 (stereo partly drawn)"
  recorded_measurement: "inactive"
- compound: "CC[C@H](C)[C@@H](C(=O)O)n1sc2ccccc2c1=O"
  recorded_measurement: "inactive"
- compound: "CCCCCCCC(=O)O"
  recorded_measurement: "inactive"

###

- experiment: ATG_RORE_CIS: Attagene CIS-FACTORIAL HepG2 Assay for human RAR-related Orphan Receptor Element (RORE) (AID 2282959)
- assay_context: HepG2 Attagene cis-factorial RORE reporter, mRNA; actives raise or lower the signal
Activity calls are given as the source filed them. Rule for the calls: active = hit-call score of the fitted dose curve at least 0.9, where 1 is the maximum; inactive = score below 0.9.
Classes used: active, inactive

- molecule: "COc1ccc([N+](=O)[O-])cc1N"
  label_value: "inactive"
- molecule: "C#C[C@]1(O)CC[C@H]2[C@@H]3CCC4=CC(=O)CC[C@@H]4[C@H]3CC[C@@]21C"
  label_value: "inactive"
- molecule: "CCCOc1sc(C(=O)N2CCC(c3cc(CN)ccc3F)CC2)c(C)c1Br"
  label_value: "inactive"
- molecule: "CCCCCCC(=O)O"
  label_value: "inactive"
- molecule: "CC[C@H](C)[C@@H](C(=O)O)n1sc2ccccc2c1=O"
  label_value: "inactive"
- molecule: "O=C(/C=C/c1ccc(O)cc1)CC(=O)/C=C/c1ccc(O)cc1"
  label_value: "active"
- molecule: "O=C(O)c1ccccc1C(c1ccc(O)cc1)c1ccc(O)cc1"
  label_value: "inactive"
- molecule: "O=c1c(-c2ccc(O)cc2)coc2cc(O)ccc12"
  label_value: "inactive"
- molecule: "CCCCC(CC)COC(=O)CCCCC(=O)OCC(CC)CCCC (centres undefined)"
  label_value: "inactive"
- molecule: "CCc1ccc(CCOc2ccc(CC3SC(=O)NC3=O)cc2)nc1 (centres undefined)"
  label_value: "inactive"
- molecule: "c1ccc2c(c1)Cc1ccccc1-2"
  label_value: "inactive"
- molecule: "N#C[C@@H]1CC(F)(F)CN1C(=O)CNC1CC2CCC(C1)N2c1ncccn1 (some centres undefined)"
  label_value: "inactive"
- molecule: "Nc1cccc2c(N)cccc12"
  label_value: "inactive"
- molecule: "OCCC(F)(F)C(F)(F)C(F)(F)C(F)(F)C(F)(F)C(F)(F)F"
  label_value: "inactive"
- molecule: "NCC(F)(F)C(F)(F)C(F)(F)C(F)(F)C(F)(F)C(F)(F)C(F)(F)F"
  label_value: "inactive"
- molecule: "C[C@@H]1C[C@H]2[C@@H]3CCC4=CC(=O)C=C[C@]4(C)[C@@]3(F)[C@@H](O)C[C@]2(C)[C@@]1(O)C(=O)COP(=O)(O)O"
  label_value: "inactive"
- molecule: "CC(=O)NC1(c2cccc(F)c2)CCN(CC[C@@]2(c3ccc(Cl)c(Cl)c3)CN(c3ccccc3)C(=O)CO2)CC1"
  label_value: "active"
- molecule: "Cc1oc(-c2ccccc2)nc1CCOc1ccc(C[C@H](Nc2ccccc2C(=O)c2ccccc2)C(=O)O)cc1"
  label_value: "inactive"
- molecule: "CCCCCCCCCCCCN1CCCC1=O"
  label_value: "inactive"
